# Lookup of reported viability keyed by entry
experimental-protocol: viability of PTEN-null HCT116 cells – cell-based, HCT116 clonal line, CellTiter-Glo, pilot screen (AID 824);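 note: 0% = 20 µM Hyamine control and 100% = vehicle cell control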
test-context: HCT116 PTEN-deleted viability, 60 h, at 10 µM, active compounds read low
Records with an inconclusive call do not appear.
Express the result in % but write the number alone.

Below: 3 compounds and their reported viability.
> print(dat)
                                   compound  value
1  CCOC(=O)N1CCC(NC(=O)C2CCN(S(=O)(=O)c3cccc4cccnc34)CC2)CC1   92.9
2  CC1CCN(c2c(NCc3ccc(C(=O)N4c5ccccc5CC4C)cc3)c(=O)c2=O)CC1 (stereo not given)   66.8
3  CC(C(=O)Oc1ccc2c(c1)OCO2)N1C(=O)c2ccccc2C1=O (stereo not given)    105

The record that follows has no viability shown yet.
Reported viability for `CCCN1CCN(CCCNC(=O)Cn2ncc3c4ccccc4n(C)c3c2=O)CC1` : what is it?
95.8
